The reader will find reported fold change of affinity values listed item by item below.
- ASSAYED TARGET: T1, Human CD137 ECD (human)
- T1 construct: also called 4-1BB
- T1 sequence (chain, as listed by the source limits assumed): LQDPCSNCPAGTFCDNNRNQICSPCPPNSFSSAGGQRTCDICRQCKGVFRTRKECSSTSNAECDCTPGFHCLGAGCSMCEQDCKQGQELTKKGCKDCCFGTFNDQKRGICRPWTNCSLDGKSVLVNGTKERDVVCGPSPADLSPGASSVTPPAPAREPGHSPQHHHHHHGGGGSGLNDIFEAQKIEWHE
- PROTOCOL SUMMARY: SPR, vs parent H183/L072
Quick reminder: number only, in fold, skip the unit.

Below are worked cases with known answers.
[[record]]
binder = "dBBDu183H D101N / dBBDu072L (antibody, name in Kabat numbering, V domains shown, as m1, one VH change) VH: QVQLVESGGGLVQPGRSLRLSCAASGFTFSNAWMHWVRQAPGKGLEWVAQIKDKGNAYAAYYAPSVKGRFTISRDDSKNSIYLQMNSLKTEDTAVYYCHYVHYASASTVLPAFGVNAWGQGTTVTVSS VL: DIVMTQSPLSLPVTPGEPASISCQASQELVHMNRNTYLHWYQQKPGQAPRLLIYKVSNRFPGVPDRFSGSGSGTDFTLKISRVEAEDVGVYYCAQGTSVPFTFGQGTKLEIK"
value_reported = 0.7

[[record]]
binder = "dBBDu183H P61E / dBBDu072L (antibody, name in Kabat numbering, V domains shown, as m1, one VH change) VH: QVQLVESGGGLVQPGRSLRLSCAASGFTFSNAWMHWVRQAPGKGLEWVAQIKDKGNAYAAYYAESVKGRFTISRDDSKNSIYLQMNSLKTEDTAVYYCHYVHYASASTVLPAFGVDAWGQGTTVTVSS VL: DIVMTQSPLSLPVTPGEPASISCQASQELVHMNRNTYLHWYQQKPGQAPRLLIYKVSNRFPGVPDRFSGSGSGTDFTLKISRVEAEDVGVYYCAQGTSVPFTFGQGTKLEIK"
value_reported = 0.7

[[record]]
binder = "dBBDu183H Y94D / dBBDu072L (antibody, name in Kabat numbering, V domains shown, as m1, one VH change) VH: QVQLVESGGGLVQPGRSLRLSCAASGFTFSNAWMHWVRQAPGKGLEWVAQIKDKGNAYAAYYAPSVKGRFTISRDDSKNSIYLQMNSLKTEDTAVYYCHDVHYASASTVLPAFGVDAWGQGTTVTVSS VL: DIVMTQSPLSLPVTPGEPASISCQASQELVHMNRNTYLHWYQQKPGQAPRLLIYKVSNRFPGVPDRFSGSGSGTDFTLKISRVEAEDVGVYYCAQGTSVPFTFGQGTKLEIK"
value_reported = 0.2

[[record]]
binder = "dBBDu183H P100eN / dBBDu072L (antibody, name in Kabat numbering, V domains shown, as m1, one VH change) VH: QVQLVESGGGLVQPGRSLRLSCAASGFTFSNAWMHWVRQAPGKGLEWVAQIKDKGNAYAAYYAPSVKGRFTISRDDSKNSIYLQMNSLKTEDTAVYYCHYVHYASASTVLNAFGVDAWGQGTTVTVSS VL: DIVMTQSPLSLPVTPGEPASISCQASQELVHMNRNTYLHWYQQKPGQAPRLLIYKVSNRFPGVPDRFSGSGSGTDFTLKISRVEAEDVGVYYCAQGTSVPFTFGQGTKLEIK"
value_reported = 0.2


# context switch: different binder, same fold change of affinity
Record request: fold change of affinity value, item dBBDu183H Y94S / dBBDu072L (antibody, name in Kabat numbering, V domains shown, as m1, one VH change) VH: QVQLVESGGGLVQPGRSLRLSCAASGFTFSNAWMHWVRQAPGKGLEWVAQIKDKGNAYAAYYAPSVKGRFTISRDDSKNSIYLQMNSLKTEDTAVYYCHSVHYASASTVLPAFGVDAWGQGTTVTVSS VL: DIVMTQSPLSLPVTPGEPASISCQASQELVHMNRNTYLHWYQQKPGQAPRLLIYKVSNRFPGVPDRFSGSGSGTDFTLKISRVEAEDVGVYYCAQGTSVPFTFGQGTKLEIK
1.4
